The reported numbers originate from paper PMC6222487.

Quick list: Selectivity Index = IC50 (BChE)/IC50 (AChE) per entry.
target: AChE (from electric eel) (Electrophorus electricus); construct: purchased Merck & Co; test: biochemical; format: biochemical; settings: IC50 BuChE/IC50 AChE
Sequence (O42275 24-633): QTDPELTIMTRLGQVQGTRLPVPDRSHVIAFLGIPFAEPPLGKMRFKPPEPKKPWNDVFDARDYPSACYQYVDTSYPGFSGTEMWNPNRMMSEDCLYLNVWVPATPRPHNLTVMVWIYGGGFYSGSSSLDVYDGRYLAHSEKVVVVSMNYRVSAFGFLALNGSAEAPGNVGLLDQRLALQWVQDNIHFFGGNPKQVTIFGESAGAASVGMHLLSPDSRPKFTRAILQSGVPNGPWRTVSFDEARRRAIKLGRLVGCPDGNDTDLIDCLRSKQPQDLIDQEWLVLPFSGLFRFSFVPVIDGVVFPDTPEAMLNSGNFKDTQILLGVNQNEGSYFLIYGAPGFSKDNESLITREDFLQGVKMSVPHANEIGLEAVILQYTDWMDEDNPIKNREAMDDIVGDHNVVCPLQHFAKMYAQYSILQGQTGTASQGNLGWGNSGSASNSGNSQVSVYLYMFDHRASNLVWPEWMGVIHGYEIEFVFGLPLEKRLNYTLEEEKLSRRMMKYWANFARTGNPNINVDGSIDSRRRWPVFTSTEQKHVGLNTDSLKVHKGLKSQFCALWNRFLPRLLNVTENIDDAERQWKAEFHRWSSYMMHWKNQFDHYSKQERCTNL
reported-metric: Selectivity Index = IC50 (BChE)/IC50 (AChE)

COc1cc(OC)cc(C(=O)OCCCOC(=O)c2nc(C)c(C)nc2C)c1 1.27 × 10^6
Cc1nc(C)c(C(=O)OCCCOC(=O)c2ccc(F)cc2)nc1C 1.14 × 10^2
COc1cccc(C(=O)OCCCOC(=O)c2nc(C)c(C)nc2C)c1OC 2.16 × 10^4
COc1ccc(C(=O)OCCCOC(=O)c2nc(C)c(C)nc2C)cc1OC 1.02 × 10^6
COc1ccc(/C=C/C(=O)OCCCOC(=O)c2nc(C)c(C)nc2C)cc1OC 1.23 × 10^6
